For each record, write down the corresponding protein stability index.
B1: SOAT1 (parent)
chain: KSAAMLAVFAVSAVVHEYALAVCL

# Variants of: B1
# run description: protein stability index of a GFP-peptide fusion (GPS, HEK-293T) (PSI 1-6); higher = more stable;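 also: lentivirally expressed fusions sorted by FACS into six bins by GFP to DsRed ratio, PSI derived from sequencing read proportions per bin multiplied by bin number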
# conditions: c terminus: a fixed tail appended
Could you respond with only the numeric value?

## Task Query (variant): C23A ; field requested: protein stability index
## Result 1.18

## Task Query (variant): A3S ; field requested: protein stability index
## Result 2.25

## Task Query (variant): V11P ; field requested: protein stability index
## Result 4.61

## Task Query (variant): Y18M ; field requested: protein stability index
## Result 1.85

## Task Query (variant): A3M ; field requested: protein stability index
## Result 3.72

## Task Query (variant): S12A ; field requested: protein stability index
## Result 1.63

## Task Query (variant): A3V ; field requested: protein stability index
## Result 1.5

## Task Query (variant): A13N ; field requested: protein stability index
## Result 2.97

## Task Query (variant): H16D ; field requested: protein stability index
## Result 2.58

## Task Query (variant): K1N ; field requested: protein stability index
## Result 1.73

## Task Query (variant): F9H ; field requested: protein stability index
## Result 3.12

## Task Query (variant): A19M ; field requested: protein stability index
## Result 2.47

## Task Query (variant): A3Q ; field requested: protein stability index
## Result 3.47

## Task Query (variant): V11H ; field requested: protein stability index
## Result 1.4

## Task Query (variant): A10S ; field requested: protein stability index
## Result 3.12

## Task Query (variant): S2M ; field requested: protein stability index
## Result 2.99

## Task Query (variant): A10T ; field requested: protein stability index
## Result 1.83

## Task Query (variant): C23H ; field requested: protein stability index
## Result 2.03

## Task Query (variant): A7G ; field requested: protein stability index
## Result 4.09

## Task Query (variant): A10P ; field requested: protein stability index
## Result 3.61

## Task Query (variant): V8H ; field requested: protein stability index
## Result 3.18

## Task Query (variant): L20S ; field requested: protein stability index
## Result 2.62

## Task Query (variant): L20W ; field requested: protein stability index
## Result 3.92

## Task Query (variant): H16L ; field requested: protein stability index
## Result 2.94

## Task Query (variant): S12W ; field requested: protein stability index
## Result 2.99

## Task Query (variant): A21E ; field requested: protein stability index
## Result 3.42

## Task Query (variant): F9S ; field requested: protein stability index
## Result 2.3

## Task Query (variant): C23I ; field requested: protein stability index
## Result 3.12

## Task Query (variant): A19Q ; field requested: protein stability index
## Result 2.44

## Task Query (variant): A3T ; field requested: protein stability index
## Result 2.06

## Task Query (variant): V22R ; field requested: protein stability index
## Result 4.03

## Task Query (variant): K1Q ; field requested: protein stability index
## Result 3.7

## Task Query (variant): A4I ; field requested: protein stability index
## Result 1.5

## Task Query (variant): S12I ; field requested: protein stability index
## Result 3.04

## Task Query (variant): E17Q ; field requested: protein stability index
## Result 3.61
